For each entry below, report its % inhibition value.
Measured target: T1, recombinant human EGFR extracellular domain with 6xHis (human, UniProt P00533 25-645)
T1 construct: In-house produced; also called 6xHis EGFR ECD; soluble human EGFR ECD; not shown: 6xHis tag
Test summary: SPR competition, competitor Ab-5
Quick reminder: number only, in %, skip the unit.

// recorded % inhibition for antibody 1344 (antibody, human IgG1, kappa, V domains shown, Chimeric IgG1 kappa) VH: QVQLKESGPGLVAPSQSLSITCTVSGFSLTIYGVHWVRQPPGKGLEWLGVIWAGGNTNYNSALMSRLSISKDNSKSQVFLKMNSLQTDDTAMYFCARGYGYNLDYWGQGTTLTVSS VL: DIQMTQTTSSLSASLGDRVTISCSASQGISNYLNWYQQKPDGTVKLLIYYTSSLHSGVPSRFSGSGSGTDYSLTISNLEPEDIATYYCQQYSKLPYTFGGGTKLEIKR : -3

// recorded % inhibition for antibody 1042 (antibody, human IgG1, kappa, V domains shown, Chimeric IgG1 kappa; RA- left out of the VH entry) VH: QVQLQQPGAELVKPGASVKLSCKASGYTFTSHWMHWVQQRPGQGLEWIGEIHPSNGRTNYNEKFKNKATLTVDKSPSTAYMQLSSLTSEDSAVYYCARYYGYDDAMDYWGQGTSVTVSS VL: DIVMTQAAFSNPVTLGTSASISCRSSKSLLHSNGITYLYWYLQKPGQSPQLLIYQMSNLASGVPDRFSSSGSRTDFTLRISRVEAEDVGVYYCAQNLELPYTFGGGTKLEIKR : 10

// recorded % inhibition for antibody 1308 (antibody, human IgG1, kappa, V domains shown, Chimeric IgG1 kappa) VH: EVQLQQSGAELVRPGSSVKISCKASGYAFSSYWMNWVRQRPGQGLEWIGQIYPGDGDTNYNGKFKGRATLTANKSSSTAYMQLSSLTSEDSAVYFCARRASSLYDVYPYYFDYWGQGTTLTVSS VL: DIQMTQTTSSLSASLGDRVTISCRASQDISNYLNWYQQKPDGTVKVLIYYTSRLHSGVPSRFSGSGSGTDYSLTISNLEQEDIATYFCQQGNTLPYTFGGGTKLEIKR : -4

// recorded % inhibition for antibody 992 (antibody, human IgG1, kappa, V domains shown, Chimeric mouse/human IgG1 kappa; the VL entry includes the human kappa constant region) VH: EVQLQQPGSELVRPGASVKLSCKASGYTFTSYWMHWVKQRPGQGLEWIGNIYPGSRSTNYDEKFKSKATLTVDTSSSTAYMQLSSLTSEDSAVYYCTRNGDYYVSSGDAMDYWGQGTSVTVSS VL: DIQMTQTTSSLSASLGDRVTISCRTSQDIGNYLNWYQQKPDGTVKLLIYYTSRLHSGVPSRFSGSGSGTDFSLTINNVEQEDVATYFCQHYNTVPPTFGGGTKLEIKR : 1

// recorded % inhibition for antibody 1261 (antibody, human IgG1, kappa, V domains shown, Chimeric IgG1 kappa) VH: EVQLVESGGGLVKPGGSLKLSCAVSGFTFSSYVMSWVRQTPEKRLEWVATITSGGRNIYYLDSVKGRFTISRDNAKNTLYLQMSSLRSEDTAMYYCARHEDYRYDGYYAMDYWGQGTSVTVSS VL: QIVLTQSPAIMSASPGEKVTITCSASSSVSYMHWFQQKPGTSPKLWIYSTSNLASGVPARFSGSGSGTSYSLTISRMEAEDAATYYCQQRSSYPYTFGGGTKLELKR : -3
